The reported measurements were obtained from paper PMC4780864.

# assayed_target: BIKE (Homo sapiens)
# Construct: gene BMP2K; catalytic domain-containing construct
# Sequence (Q9NSY1 whole entry, the tested form may be a part): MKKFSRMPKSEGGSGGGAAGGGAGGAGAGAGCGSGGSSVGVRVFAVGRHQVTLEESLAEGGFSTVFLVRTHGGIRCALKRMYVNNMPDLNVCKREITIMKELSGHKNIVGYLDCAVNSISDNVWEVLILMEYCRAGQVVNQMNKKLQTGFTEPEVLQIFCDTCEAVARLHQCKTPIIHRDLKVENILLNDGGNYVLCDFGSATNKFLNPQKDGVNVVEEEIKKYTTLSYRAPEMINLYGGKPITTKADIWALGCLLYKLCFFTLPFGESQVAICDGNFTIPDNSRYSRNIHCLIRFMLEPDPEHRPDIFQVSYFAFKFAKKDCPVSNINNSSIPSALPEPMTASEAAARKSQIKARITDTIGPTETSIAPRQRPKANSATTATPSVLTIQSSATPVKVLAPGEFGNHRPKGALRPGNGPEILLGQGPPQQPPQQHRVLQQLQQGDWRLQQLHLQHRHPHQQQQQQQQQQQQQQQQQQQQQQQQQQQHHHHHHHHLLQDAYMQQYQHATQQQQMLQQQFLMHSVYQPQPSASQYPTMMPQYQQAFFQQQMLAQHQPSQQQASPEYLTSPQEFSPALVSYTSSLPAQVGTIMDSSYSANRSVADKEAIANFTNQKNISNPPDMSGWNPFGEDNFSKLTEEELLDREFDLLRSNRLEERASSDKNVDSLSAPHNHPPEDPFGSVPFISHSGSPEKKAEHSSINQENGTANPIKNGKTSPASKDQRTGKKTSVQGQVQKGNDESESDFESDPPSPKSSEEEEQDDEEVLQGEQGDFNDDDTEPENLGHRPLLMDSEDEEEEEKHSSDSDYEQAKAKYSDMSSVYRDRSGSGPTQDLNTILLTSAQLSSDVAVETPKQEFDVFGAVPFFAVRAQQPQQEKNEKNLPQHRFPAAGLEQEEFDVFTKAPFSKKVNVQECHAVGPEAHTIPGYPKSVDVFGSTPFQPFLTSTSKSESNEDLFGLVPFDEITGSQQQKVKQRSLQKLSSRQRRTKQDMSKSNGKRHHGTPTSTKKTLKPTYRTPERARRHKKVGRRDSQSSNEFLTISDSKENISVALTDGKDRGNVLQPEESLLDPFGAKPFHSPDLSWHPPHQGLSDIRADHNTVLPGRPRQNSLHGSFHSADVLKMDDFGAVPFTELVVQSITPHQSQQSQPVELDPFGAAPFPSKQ
# test: biochemical
# Set-up: Thermal shift assay (DSF, SYPRO Orange), 2 uM kinase domain, mean delta Tm of triplicates versus DMSO
# condition_description: read-out: BIKE
readout_type: ΔTm at 12.5 µM

Example cases with answers are listed next.
molecule: CC[C@@H]1C(=O)N(C)c2cnc(Nc3ccc(C(=O)N[C@H]4CC[C@H](N5CCN(CC6CC6)CC5)CC4)cc3OC)nc2N1C(C)C [Volasertib]
ΔTm at 12.5 µM: 3.48 °C
--
molecule: Clc1ccc(Nc2nnc(Cc3ccncc3)c3ccccc23)cc1 [Vatalanib]
ΔTm at 12.5 µM: 0.423 °C
--
molecule: CCN(CCO)CCCOc1ccc2c(Nc3cc(CC(=O)Nc4cccc(F)c4)[nH]n3)ncnc2c1 [AZD1152-HQPA]
ΔTm at 12.5 µM: 2.02 °C
--
molecule: COc1cc2c(Oc3ccc4[nH]c(C)cc4c3F)ncnc2cc1OCCCN1CCCC1 [Cediranib]
ΔTm at 12.5 µM: 1.58 °C
--
molecule: Cc1ccc(C(=O)Nc2ccc(CN3CCN(C)CC3)c(C(F)(F)F)c2)cc1C#Cc1cnc2cccnn12 [Ponatinib]
ΔTm at 12.5 µM: 2.93 °C

Give the reported ΔTm at 12.5 µM for this molecule. Cc1ccc(-n2nc(C(C)(C)C)cc2NC(=O)Nc2ccc(OCCN3CCOCC3)c3ccccc23)cc1 [Doramapimod] 0.16 °C

Identify measured ΔTm at 12.5 µM associated with CC1(COc2ccc3c(c2)ncn3-c2ccc3cccc(N4CCC(N)CC4)c3n2)COC1 [Crenolanib] 12 °C

Consider the molecule Nc1nccc(-c2c(-c3ccc(F)cc3)ncn2C2CCCCC2)n1 [PF-670462] . State its measured ΔTm at 12.5 µM. 1.04 °C
